Tested on: MALME-3M melanoma
protocol: NCI tumour cell line growth inhibition, 48 h
measure: TGI

- smiles_str: "COc1ccc(/C=N/NS(=O)(=O)c2ccc(/C=C3\\NC(=O)NC3=O)cc2)cc1"
  result_value: "> 100 µM"
- smiles_str: "COC1(OC)CCCCCCCCC(OC)(OC)CCCCCCCC1"
  result_value: "> 100 µM"
- smiles_str: "c1ccc(C2(c3cc4ccccc4[nH]3)OCCO2)nc1"
  result_value: "> 100 µM"
- smiles_str: "CCc1n[nH]c(=O)n1-n1c(C)ccc1C"
  result_value: "> 100 µM"
- smiles_str: "O=C(CCl)N1CCN(c2ccccn2)CC1"
  result_value: "31.8 µM"
- smiles_str: "CCNCCS(=O)(=O)NC[C@@]1(c2ccccc2)SC(NC(=O)C(C)(C)C)=NN1C(=O)C(C)(C)C"
  result_value: "30.2 µM"

----------
// reported TGI for each item listed
Test system: SK-OV-3 ovarian
protocol: NCI tumour cell line growth inhibition, 48 h
*1 amine or outer side, *2 acyl side, *3 side chain or, on linkers, in order; H or OH if unused. Where a SMILES comes first, the peptide text is derived from it. Bridges are numbered along the chain shown (N, C = ends). Roman numbers before positions name the chains, in order. [ ]: non-standard residue; d: D form. Actinocin(1to9) = Cc1c2oc3c(C)ccc(C(=O)[*:2])c3nc-2c(C(=O)[*:1])c(N)c1=O; NMeV = CN[CH](C(=O)O)C(C)C; Sar = CNCC(=O)O

- compound: "O=C(Oc1ccc(C(c2c(O)c3ccccc3oc2=O)c2c(O)c3ccccc3oc2=O)cc1)c1ccc(C(=O)c2ccccc2)cc1"
  TGI: "33.4 µM"
- compound: "O=[N+]([O-])c1ccc(C2Nn3c(nnc3-c3cccc([N+](=O)[O-])c3)S2)cc1 (configuration not stated)"
  TGI: "> 100 µM"
- compound: "O=S1(=O)C[C@H](NCc2ccccc2)[C@H](NCc2ccccc2)C1"
  TGI: "> 100 µM"
- compound: "CN1CCOC1(C)c1ccccc1 (configuration not stated)"
  TGI: "> 100 µM"
- compound: "O=S(=O)(N=[Se](=O)(c1ccccc1)c1ccccc1)c1ccccc1"
  TGI: "> 100 µM"
- compound: "OCC1NC(CO)C(O)C1O (configuration not stated)"
  TGI: "> 100 µM"
- compound: "Cc1ccc(S(=O)(=O)NC(=O)NC(CCCCN)C(=O)O)cc1 (configuration not stated)"
  TGI: "> 100 µM"
- compound: "O=C(O)C1CC[N-]CC1.O=C(O)C1CC[N-]CC1.[NH2-].[NH2-].[Pt+4]"
  TGI: "> 100 µM"
- compound: "OC(Cc1cnnc2ccccc12)C(Cl)(Cl)Cl (configuration not stated)"
  TGI: "> 10 µM"
- compound: "c1ccc(-c2sc(-c3ccccc3)c3c2C(c2ccccc2)c2c(-c4ccccc4)sc(-c4ccccc4)c2C3c2ccccc2)cc1 (configuration not stated)"
  TGI: "> 100 µM"
- compound: "CC(C)=NC(C(=O)O)C(C)(C)S (configuration not stated)"
  TGI: "> 100 µM"
- compound: "C=C(Cl)[C@](Cl)(CBr)CC[C@@H](Br)C(C)(C)Cl"
  TGI: "25.3 µM"
- compound: "O=C(N[C@H](CO)[C@H](O)c1ccc([N+](=O)[O-])cc1)C(Cl)Cl"
  TGI: "> 100 µM"
- compound: "c1ccc(CN2C3C4N(Cc5ccccc5)C2C2N(Cc5ccccc5)C(C(N2Cc2ccccc2)N4Cc2ccccc2)N3Cc2ccccc2)cc1"
  TGI: "> 100 µM"
- compound: "C/C=C(/C)C(=O)OC1C=C(CO)C(=O)C(OC(=O)C2(C)OC2C)C1C(C)C (configuration not stated)"
  TGI: "14.3 µM"
- compound: "C#CCC(O)c1ccc(OC)c(OCc2ccccc2)c1 (configuration not stated)"
  TGI: "> 100 µM"
- compound: "N#Cc1ncc(-c2ccc(C(F)(F)F)cc2)c(NC2CCCCCC2)n1"
  TGI: "> 100 µM"
- compound: "O=c1[nH]c(-c2ccccc2)nc2cc([N+](=O)[O-])c(/C(Cl)=C/c3ccccc3)cc12"
  TGI: "72.2 µM"
- compound: "O=C1NC(=NCCc2ccccc2F)S/C1=C\\c1ccc2ncccc2c1"
  TGI: "> 25 µM"
- compound: "N=C1C(c2nc3ccccc3c(=O)[nH]2)=C(O)CN1c1cccc(Cl)c1"
  TGI: "> 100 µM"
- compound: "COc1ccc(CC2NC(=O)C(NC(=O)c3c4nc5c(C(=O)NC6C(=O)NC(Cc7ccc(OC)cc7)C(=O)N7CCCC7C(=O)N(C)CC(=O)N(C)C(C(C)C)C(=O)OC6C)ccc(C)c5oc-4c(C)c(=O)c3N)C(C)OC(=O)C(C(C)C)N(C)C(=O)CN(C)C(=O)C3CCCN3C2=O)cc1 (configuration not stated) (I: TY(Me)P[Sar][NMeV] / II: TY(Me)P[Sar][NMeV]; ester I:1-I:C, II:1-II:C; linker I:N-II:N via Actinocin(1to9); configuration not given here)"
  TGI: "12.6 µM"
- compound: "COC(=O)C1C(=O)C(C(=O)OC)C2CCC1N2C (configuration not stated)"
  TGI: "> 100 µM"
- compound: "Cc1cc2c3c(nc4ccccc42)C(=O)c2cccnc2-c3n1"
  TGI: "1.07 µM"
- compound: "CCc1cccc(C(C)C)c1NC(=O)C(=O)Nn1c(=S)[nH]c2ccccc2c1=O"
  TGI: "> 100 µM"
- compound: "O=C(Cn1c2ccc(Br)cc2c2nc3ccccc3nc21)NNC(=O)NC1CCCCC1"
  TGI: "> 100 µM"
- compound: "c1ccc(C2(c3cc4ccccc4[nH]3)OCCO2)nc1"
  TGI: "> 100 µM"
- compound: "O=C(NNC1=NS(=O)(=O)c2ccccc2N1c1ccccc1)c1cnccn1"
  TGI: "> 100 µM"
- compound: "Nc1ncc(-c2ccc3ncnc(N4CCc5cc(F)c(Cl)cc54)c3c2)cc1C=O"
  TGI: "6.42 µM"
- compound: "C[C@H]1[C@H]2[C@H](C[C@@]3(C)C4=CC[C@H]5C(C)(C)[C@@H](OC6OCC(O)C(O)C6O)CC[C@@]56C[C@@]46CC[C@]23C)O[C@@]2(O)[C@@H]1OC(C)(C)[C@H]2O (some centres not stated)"
  TGI: "4.55 µM"
- compound: "COC(=O)COc1ccccc1/C=C1/N=C(c2ccccc2)N(c2c(C)n(C)n(-c3ccccc3)c2=O)C1=O"
  TGI: "> 100 µM"
- compound: "CCN(CC)Cc1cc(Nc2ccnc3ccc(OC)cc23)ccc1O"
  TGI: "34.5 µM"
- compound: "Cc1ccc(NC(=O)CC(=O)N2N=C(N(c3ccccc3)c3ccccc3)CC2c2ccccc2)cc1 (configuration not stated)"
  TGI: "> 100 µM"
- compound: "COc1cc2c(SCCN(C)C)nc3ccccc3c2c2ccccc12"
  TGI: "25.6 µM"
- compound: "O=C(Nc1ccc(Nc2ccc(NC(=O)c3ccccc3)c3c2C(=O)c2ccccc2C3=O)c2c1C(=O)c1ccccc1C2=O)c1ccccc1"
  TGI: "> 100 µM"
- compound: "CN1CCN(CCCCCOc2cc(O)c3c(=O)cc(-c4ccccc4)oc3c2)CC1"
  TGI: "16.9 µM"
- compound: "NNC(=O)N/N=C(/CC1(O)C(=O)Nc2ccc(Br)cc21)c1ccccc1 (configuration not stated)"
  TGI: "> 100 µM"
- compound: "CC(=O)O[C@H]1[C@@H](OC2CCCC2(c2ccccc2)c2ccccc2)O[N+]([O-])=C[C@@H]1c1ccccc1 (some centres not stated)"
  TGI: "29 µM"

----------
Test system: HS 578T breast
protocol: NCI tumour cell line growth inhibition, 48 h; in the data active means GI50 below about 0.43 µM; inactive means the rest
Possible outcomes: T for active, F for inactive

- compound: "C/C=C(/C)C(=O)OC1C=C(CO)C(=O)C(OC(=O)C2(C)OC2C)C1C(C)C (centres undefined)"
  answer_label: "F"
- compound: "CN1CCN(CCCCCOc2cc(O)c3c(=O)cc(-c4ccccc4)oc3c2)CC1"
  answer_label: "F"
- compound: "Cc1ccc2c(-c3ccnc(Nc4cccc(C(F)(F)F)c4)n3)c(-c3ccccc3)nn2n1"
  answer_label: "F"
- compound: "Fc1ccc(C2CC(c3cccc(Nc4ccncc4)c3)=NN2c2ccccc2)cc1 (centres undefined)"
  answer_label: "F"
- compound: "COC(=O)COc1ccccc1/C=C1/N=C(c2ccccc2)N(c2c(C)n(C)n(-c3ccccc3)c2=O)C1=O"
  answer_label: "F"
- compound: "Cc1cc(NS(=O)(=O)c2ccc(-c3cnc(C4CC4)o3)cc2)ccc1Cl"
  answer_label: "T"
- compound: "CCN(CC)Cc1cc(Nc2ccnc3ccc(OC)cc23)ccc1O"
  answer_label: "F"
- compound: "Cc1cc2c(C(C)C)c(O)c(O)c(/C=N/O)c2c(O)c1-c1c(C)cc2c(C(C)C)c(O)c(O)c(/C=N/O)c2c1O"
  answer_label: "F"
- compound: "CN1CCC(=C(c2ccc(Cl)cc2)c2ccccn2)CC1"
  answer_label: "F"
